EXPERIMENT SUMMARY: CHI Log D procedure
Type: physicochemical
STATED CONDITIONS: pH 7.4
Recorded CHI Log D for the following molecules
Output: the number by itself.

Look up CHI Log D: CC(=O)N1CCC[C@]12CC=CCCCC1(CCCC=CCCCOC(=O)N3CC[C@@](C(=O)N[C@@H](Cc4ccsc4)C(=O)N[C@@H](Cc4csc5ccccc45)C(=O)N[C@@H](C)C(N)=O)(C3)NC(=O)[C@H](CC(N)=O)NC(=O)[C@H](Cc3ccccc3)NC(=O)[C@H](C)NC(=O)[C@H](C)NC(=O)[C@H](CN(CC(=O)O)CC(F)(F)F)NC(=O)[C@H](CC(=O)O)NC1=O)NC(=O)[C@H](CC(C)(C)C)NC(=O)[C@H](CC(=O)O)NC2=O (some centres unmarked) [I-944]
1.982

Look up CHI Log D: CC(=O)N1CCC[C@]12CC=CCCCC1(CCCC=CCCCCCC[C@@](C)(C(=O)N[C@@H](Cc3ccc(C(F)(F)F)cc3)C(=O)N[C@@H](Cc3c[nH]c4ccccc34)C(=O)N[C@@H](CCC(N)=O)C(N)=O)NC(=O)[C@H](C(C)C)NC(=O)[C@H](Cc3ccccc3)NC(=O)[C@H](C)NC(=O)[C@H](C)NC(=O)[C@H](CC(=O)O)NC(=O)[C@H](CC(=O)O)NC1=O)NC(=O)[C@H](C)NC(=O)[C@H](CC(=O)O)NC2=O (some centres unmarked) [I-253]
2.214

Look up CHI Log D: CC[C@H](C)[C@@H]1NC(=O)[C@H](CC(=O)O)NC(=O)[C@]2(CC=CCCCC3(CCCC=CCCCCCC[C@@](C)(C(=O)N[C@@H](Cc4ccccc4)C(=O)N[C@@H](Cc4csc5ccccc45)C(=O)N[C@@H](CCC(N)=O)C(N)=O)NC(=O)[C@H](CCC(N)=O)NC(=O)[C@H](Cc4ccccc4)NC(=O)[C@H](C)NC(=O)[C@H](Cc4ccccc4)NC(=O)[C@H](CCC(=O)O)NC(=O)[C@H](CC(=O)O)NC3=O)NC1=O)CCCN2C(C)=O (some centres unmarked) [I-649]
2.677

Look up CHI Log D: CC[C@H](C)[C@@H]1NC(=O)[C@H](CC(=O)O)NC(=O)[C@]2(CC=CCCCC3(CCCC=CCCCCCC[C@@](C)(C(=O)N[C@@H](Cc4ccccc4)C(=O)N[C@@H](Cc4csc5ccccc45)C(=O)N[C@@H](Cc4c[nH]c5ccccc45)C(N)=O)NC(=O)[C@H](CCC(N)=O)NC(=O)[C@H](Cc4ccccc4)NC(=O)[C@H](C)NC(=O)[C@H](C)NC(=O)[C@H](CCC(=O)O)NC(=O)[C@H](CC(=O)O)NC3=O)NC1=O)CCCN2C(C)=O (some centres unmarked) [I-643]
2.833

Look up CHI Log D: CC[C@H](C)[C@@H]1NC(=O)[C@H](CC(=O)O)NC(=O)[C@]2(CC=CCCCC3(CCCC=CCCCCCC[C@@](C)(C(=O)N[C@@H](Cc4ccccc4)C(=O)N[C@@H](Cc4csc5ccccc45)C(=O)N[C@@H](CCC(N)=O)C(N)=O)NC(=O)[C@H](CCC(N)=O)NC(=O)[C@H](Cc4ccccc4)NC(=O)[C@H](Cc4c[nH]c5ccccc45)NC(=O)[C@H](C)NC(=O)[C@H](CCC(=O)O)NC(=O)[C@H](CC(=O)O)NC3=O)NC1=O)CCCN2C(C)=O (some centres unmarked) [I-664]
2.433
